biological target: Histone-lysine N-methyltransferase 2A (Homo sapiens, UniProt Q03164)
Observable: pIC50
Just so you know, pIC50 here is -log10 of the concentration in molar units; reply with that number alone.

# returns recorded pIC50 (system: Histone-lysine N-methyltransferase 2A (Homo sapiens, UniProt Q03164)) for `CN1CCN(c2cc(F)c(-c3ccc(C(=O)N(C)C)cc3)cc2Nc2ncnc(Cl)c2N)CC1`
6.11

----------
experiment: MRT in Sprague-Dawley rat at 10 mg/kg, po measured upto 24 hrs by LC-MS/MS analysis; type: ADME, organism-based; conditions: in vivo
Observable: MRT

Name the reported MRT value associated with the molecule `CN1CCN(c2cc(F)c(-c3ccc(C(=O)N(C)C)cc3)cc2Nc2ncnc(Cl)c2N)CC1`
5.42 h

----------
target: Histone-lysine N-methyltransferase 2A/WDR5 (Homo sapiens, UniProt P61964); assay: Inhibition of MLL1-WDR5 (unknown origin) protein-protein interaction using Thr-FAM as probe by fluorescence polarization competition assay
For each entry below, report its pIC50 value.
Just so you know, pIC50 here is -log10 of the concentration in molar units; reply with that number alone.

Name the reported pIC50 value associated with the compound `CN1CCN(c2cc(F)c(-c3ccc(C(=O)NCCCN4CCOCC4)cc3)cc2Nc2ncnc(Cl)c2N)CC1`
7.68

Now the same for `CN1CCN(c2ccc(-c3ccc(C(=O)N4CCC(C)(O)CC4)cc3)cc2Nc2ncnc(Cl)c2N)CC1`
6.80

Now the same for `Nc1c(Cl)ncnc1Nc1cc([N+](=O)[O-])ccc1N1CCNCC1`
4.35

Now the same for `Cc1cc(N2CCN(C)CC2)c(Nc2ncnc(Cl)c2N)cc1-c1ccc(C(=O)NCCCN2CCOCC2)cc1`
3.33

Now the same for `Cc1nc(Cl)c(N)c(Nc2cc([N+](=O)[O-])ccc2N2CCN(C)CC2)n1`
4.92

Now the same for `CN1CCN(c2ccc([N+](=O)[O-])cc2Nc2cc(Cl)nc(N)n2)CC1`
4.69

Now the same for `CCN1CCN(C(=O)c2ccc(-c3ccc(N4CCN(C)CC4)c(Nc4ncnc(Cl)c4N)c3F)cc2)CC1`
3.95

Now the same for `CN1CCC(C(=O)Nc2ccc(-c3ccc(N4CCN(C)CC4)c(Nc4ncnc(Cl)c4N)c3F)cc2)CC1`
3.98

----------
test: Apparent volume of distribution in Sprague-Dawley rat at 10 mg/kg, po measured upto 24 hrs by LC-MS/MS analysis; type: ADME, organism-based; conditions: in vivo, read-out: Vz/F
Observable: Vd/F

Name the reported Vd/F value associated with the compound `CN1CCN(c2cc(F)c(-c3ccc(C(=O)N(C)C)cc3)cc2Nc2ncnc(Cl)c2N)CC1`
37.1 L/kg

----------
target: UniProtKB O14744
Sequence (O14744 whole entry): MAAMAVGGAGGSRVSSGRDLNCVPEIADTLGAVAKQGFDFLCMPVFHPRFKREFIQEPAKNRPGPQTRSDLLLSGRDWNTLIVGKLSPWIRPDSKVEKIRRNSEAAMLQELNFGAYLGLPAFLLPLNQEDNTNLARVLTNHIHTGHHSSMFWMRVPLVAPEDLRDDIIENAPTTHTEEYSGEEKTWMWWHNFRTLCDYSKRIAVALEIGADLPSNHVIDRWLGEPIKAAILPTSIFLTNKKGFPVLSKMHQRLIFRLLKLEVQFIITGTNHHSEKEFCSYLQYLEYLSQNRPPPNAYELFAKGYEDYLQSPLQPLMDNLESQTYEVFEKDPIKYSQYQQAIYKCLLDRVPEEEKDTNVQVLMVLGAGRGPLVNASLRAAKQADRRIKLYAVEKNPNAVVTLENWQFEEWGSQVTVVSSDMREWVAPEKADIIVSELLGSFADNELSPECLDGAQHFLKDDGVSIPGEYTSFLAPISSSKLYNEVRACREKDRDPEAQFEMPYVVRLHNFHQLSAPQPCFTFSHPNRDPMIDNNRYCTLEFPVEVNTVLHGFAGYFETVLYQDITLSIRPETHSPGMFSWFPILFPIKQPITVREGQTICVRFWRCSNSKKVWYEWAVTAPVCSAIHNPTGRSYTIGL
pIC50: −log10 of the molar value.
Observable: pIC50

Name the reported pIC50 value associated with the molecule `CN1CCN(c2cc(F)c(-c3ccc(C(=O)N(C)C)cc3)cc2Nc2ncnc(Cl)c2N)CC1`
< 4.00

----------
assay: AUC (0 to infinity) in Sprague-Dawley rat at 10 mg/kg, po measured upto 24 hrs by LC-MS/MS analysis; type: ADME, organism-based; set-up: route oral, dose 10 mg/kg, time <=24; conditions: in vivo
Observable: AUC(0-inf)
Answer format: number, then unit.

Name the reported AUC(0-inf) value associated with the compound `CN1CCN(c2cc(F)c(-c3ccc(C(=O)N(C)C)cc3)cc2Nc2ncnc(Cl)c2N)CC1`
1740 ng·h/mL

----------
target: Histone-lysine N-methyltransferase EHMT2 (Homo sapiens); assay: Inhibition of G9a (unknown origin) assessed as effect on H3K9 methylation incubated for 30 mins by Alphascreen assay
Sequence (Q96KQ7 whole entry): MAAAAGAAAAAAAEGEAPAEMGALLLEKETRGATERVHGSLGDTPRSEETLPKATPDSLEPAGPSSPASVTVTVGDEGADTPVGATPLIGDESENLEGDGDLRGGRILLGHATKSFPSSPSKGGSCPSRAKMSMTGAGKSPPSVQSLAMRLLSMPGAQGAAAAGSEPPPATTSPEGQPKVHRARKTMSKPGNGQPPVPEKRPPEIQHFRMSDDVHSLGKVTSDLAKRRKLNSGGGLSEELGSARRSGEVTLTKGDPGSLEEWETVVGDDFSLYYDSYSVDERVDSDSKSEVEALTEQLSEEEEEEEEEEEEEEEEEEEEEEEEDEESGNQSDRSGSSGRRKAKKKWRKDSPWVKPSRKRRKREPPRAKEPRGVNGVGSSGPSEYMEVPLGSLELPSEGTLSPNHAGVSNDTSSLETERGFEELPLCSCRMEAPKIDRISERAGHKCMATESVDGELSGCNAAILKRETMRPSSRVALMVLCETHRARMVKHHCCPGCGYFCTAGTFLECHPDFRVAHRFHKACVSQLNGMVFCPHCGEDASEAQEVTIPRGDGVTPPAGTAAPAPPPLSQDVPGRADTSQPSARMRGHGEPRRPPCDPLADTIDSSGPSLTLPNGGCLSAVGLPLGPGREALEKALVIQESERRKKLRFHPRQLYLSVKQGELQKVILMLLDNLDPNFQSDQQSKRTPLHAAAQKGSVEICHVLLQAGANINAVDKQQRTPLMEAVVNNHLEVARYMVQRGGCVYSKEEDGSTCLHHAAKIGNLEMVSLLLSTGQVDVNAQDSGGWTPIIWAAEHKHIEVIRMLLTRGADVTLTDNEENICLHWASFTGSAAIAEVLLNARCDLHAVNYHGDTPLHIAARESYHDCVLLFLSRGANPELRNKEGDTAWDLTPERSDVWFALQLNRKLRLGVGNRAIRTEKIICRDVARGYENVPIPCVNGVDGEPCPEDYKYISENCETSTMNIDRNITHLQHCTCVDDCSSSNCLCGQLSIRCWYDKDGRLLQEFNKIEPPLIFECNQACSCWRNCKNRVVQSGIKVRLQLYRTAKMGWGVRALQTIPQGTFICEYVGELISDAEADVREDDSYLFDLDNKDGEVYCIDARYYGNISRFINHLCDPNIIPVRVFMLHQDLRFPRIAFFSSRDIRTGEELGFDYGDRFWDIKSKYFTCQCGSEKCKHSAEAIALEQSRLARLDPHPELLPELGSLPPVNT
pIC50: −log10 of the molar value.
Observable: pIC50

# returns recorded pIC50 (system: Histone-lysine N-methyltransferase EHMT2 (Homo sapiens)) for `CN1CCN(c2cc(F)c(-c3ccc(C(=O)N(C)C)cc3)cc2Nc2ncnc(Cl)c2N)CC1`
< 4.00

----------
assay: AUC (0 to t) in Sprague-Dawley rat at 2 mg/kg, iv measured upto 24 hrs by LC-MS/MS analysis; format: ADME, organism-based; parameters: route intravenous, dose 2 mg/kg, time <=24; settings: in vivo
Observable: AUC(0-t) at 24 h (ng·h/mL)
Field: numeric (ng·h/mL). Do not append units.

Name the reported AUC(0-t) at 24 h value associated with the compound `CN1CCN(c2cc(F)c(-c3ccc(C(=O)N(C)C)cc3)cc2Nc2ncnc(Cl)c2N)CC1`
411

----------
biological target: Histone-lysine N-methyltransferase 2A/WDR5 (Homo sapiens, UniProt P61964); experiment: Inhibition of MLL1-WDR5 (unknown origin) protein-protein interaction using Thr-FAM as probe by fluorescence polarization competition assay
pIC50: −log10 of the molar value.
Quick rule: pIC50 of at least 4 means criterion met, below that means criterion not met.

Is it the case that `CN1CCC(NC(=O)c2ccc(-c3ccc(N4CCN(C)CC4)c(Nc4ncnc(Cl)c4N)c3)cc2)CC1` has pIC50 reaching or exceeding 4?
criterion met

Now the same for `CN1CCN(c2ccc(-c3ccc(C(=O)NC4CCOCC4)cc3)cc2Nc2ncnc(Cl)c2N)CC1`
criterion met

Now the same for `CN1CCN(c2cc(F)c(-c3ccc(C(=O)NCCN4CCOCC4)cc3)cc2Nc2ncnc(Cl)c2N)CC1`
criterion met

Now the same for `CN1CCN(c2ccc(-c3ccc(C(=O)N(C)C)cc3)c(F)c2Nc2ncnc(Cl)c2N)CC1`
criterion not met

Now the same for `CN1CCN(c2cc(F)c(-c3ccc(C(=O)N(C)C)cc3)cc2Nc2ncnc(Cl)c2N)CC1`
criterion met

Now the same for `CN1CCN(c2cc(F)c(-c3ccc(C(=O)NCC4CCOCC4)cc3)cc2Nc2ncnc(Cl)c2N)CC1`
criterion met

----------
assay: AUC (0 to infinity) in Sprague-Dawley rat at 2 mg/kg, iv measured upto 24 hrs by LC-MS/MS analysis; type: ADME, organism-based; design: route intravenous, dose 2 mg/kg, time <=24; conditions: in vivo
Observable: AUC(0-inf)
Answer format: number, then unit.

Name the reported AUC(0-inf) value associated with the compound `CN1CCN(c2cc(F)c(-c3ccc(C(=O)N(C)C)cc3)cc2Nc2ncnc(Cl)c2N)CC1`
424 ng·h/mL

----------
test: AUC (0 to t) in Sprague-Dawley rat at 10 mg/kg, po measured upto 24 hrs by LC-MS/MS analysis; format: ADME, organism-based; set-up: route oral, dose 10 mg/kg, time <=24; details: in vivo
Observable: AUC(0-t) at 24 h (ng·h/mL)
Field: numeric (ng·h/mL). Do not append units.

Name the reported AUC(0-t) at 24 h value associated with the compound `CN1CCN(c2cc(F)c(-c3ccc(C(=O)N(C)C)cc3)cc2Nc2ncnc(Cl)c2N)CC1`
1320

----------
assay: Metabolic stability in human liver microsomes assessed as half life at 1 uM in presence of NADPH by LC-MS/MS analysis; assay type: ADME, Microsome
Observable: half-life at 1 µM (h)
Field: numeric (h). Do not append units.

Name the reported half-life at 1 µM value associated with the compound `CN1CCN(c2cc(F)c(-c3ccc(C(=O)N(C)C)cc3)cc2Nc2ncnc(Cl)c2N)CC1`
1.17

----------
tested on: MOLM-13; assay: Antiproliferative activity against human MOLM-13 cells assessed as cell viability incubated for 72 hrs by CCK8 assay; format: functional, cell-based; conditions: MOLM-13, 72 h
IC50 strictly under 20 µM means satisfied; at 20 µM or over means not satisfied.

Please determine if `CN1CCN(c2cc(F)c(-c3ccc(C(=O)NCC4CCOCC4)cc3)cc2Nc2ncnc(Cl)c2N)CC1` is below 20 µM in terms of IC50.
satisfied

Now the same for `CN1CCN(c2cc(F)c(-c3ccc(C(=O)NCCN4CCOCC4)cc3)cc2Nc2ncnc(Cl)c2N)CC1`
not satisfied

Now the same for `CN1CCN(c2cc(F)c(-c3ccc(C(=O)N(C)C)cc3)cc2Nc2ncnc(Cl)c2N)CC1`
satisfied

Now the same for `CN1CCN(c2cc(F)c(-c3ccc(C(=O)N4CCOCC4)cc3)cc2Nc2ncnc(Cl)c2N)CC1`
satisfied

Now the same for `CN1CCN(c2cc(F)c(-c3ccc(C(=O)NCCCN4CCOCC4)cc3)cc2Nc2ncnc(Cl)c2N)CC1`
satisfied

----------
For each entry below, report its log10 of IC50 value.
biological target: Histone-lysine N-methyltransferase 2A/WDR5 (Homo sapiens); experiment: Inhibition of MLL1-WDR5 (unknown origin) protein-protein interaction using Thr-FAM as probe by fluorescence polarization competition assay
Please note: log10 values; quantity IC50; unit µM.

Name the reported log10 of IC50 value associated with the compound `CN1CCN(c2ccc(-c3ccc(C(=O)N4CCOCC4)cc3)c(F)c2Nc2ncnc(Cl)c2N)CC1`
2.07

Now the same for `CN1CCN(c2ccc(-c3ccc(C(=O)NCCN4CCOCC4)cc3)c(F)c2Nc2ncnc(Cl)c2N)CC1`
2.01

Now the same for `CN1CCN(c2ccc(-c3ccc(C(=O)N4CCC(O)CC4)cc3)cc2Nc2ncnc(Cl)c2N)CC1`
-0.96

Now the same for `CN1CCN(c2ccc(-c3ccc(NC(=O)CC4CCOCC4)cc3)c(F)c2Nc2ncnc(Cl)c2N)CC1`
1.93

Now the same for `CN1CCN(c2ccc(-c3ccc(NC(=O)C4CCOCC4)cc3)c(F)c2Nc2ncnc(Cl)c2N)CC1`
2.25

Now the same for `CN1CCN(c2cc(F)c(-c3ccc(C(=O)N4CCOCC4)cc3)cc2Nc2ncnc(Cl)c2N)CC1`
1.56
